Each entry below carries its reported residual activity.
# measurement_target: CHUK (human) (UniProt O15111)
# Sequence (O15111 whole entry, looked up): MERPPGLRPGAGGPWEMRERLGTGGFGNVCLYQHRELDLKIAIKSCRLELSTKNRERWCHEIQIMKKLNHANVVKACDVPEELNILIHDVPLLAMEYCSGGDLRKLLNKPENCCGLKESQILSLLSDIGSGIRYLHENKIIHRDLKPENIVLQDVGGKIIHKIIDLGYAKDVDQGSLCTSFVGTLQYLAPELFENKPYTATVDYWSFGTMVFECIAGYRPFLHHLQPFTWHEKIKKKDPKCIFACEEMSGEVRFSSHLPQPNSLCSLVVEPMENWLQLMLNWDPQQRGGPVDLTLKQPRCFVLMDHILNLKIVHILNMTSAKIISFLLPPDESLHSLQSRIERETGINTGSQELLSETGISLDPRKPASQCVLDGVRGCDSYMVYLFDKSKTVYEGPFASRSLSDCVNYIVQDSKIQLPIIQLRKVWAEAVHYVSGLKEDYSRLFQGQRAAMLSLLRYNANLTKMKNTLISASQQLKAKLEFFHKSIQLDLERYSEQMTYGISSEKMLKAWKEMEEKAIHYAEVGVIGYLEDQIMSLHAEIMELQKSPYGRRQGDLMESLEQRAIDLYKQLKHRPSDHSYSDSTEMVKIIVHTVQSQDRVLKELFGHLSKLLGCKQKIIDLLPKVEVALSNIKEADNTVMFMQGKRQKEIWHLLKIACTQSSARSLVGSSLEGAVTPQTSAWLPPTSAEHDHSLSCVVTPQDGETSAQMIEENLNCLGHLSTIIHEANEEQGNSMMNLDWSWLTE
# test_name: radiometric filter-binding kinase assay, Kinase HotSpot
# run_parameters: compound 0.5 µM; ATP 10 µM
Answer in %, number only, no unit symbol.

Example entries begin here.
c1ccc(-c2n[nH]cc2-c2ccnc3ccccc23)nc1: 94.2
CCN(CC)CCNC(=O)c1c(C)[nH]c(/C=C2\C(=O)Nc3ccc(F)cc32)c1C: 92.4
O=C1Nc2ccc(Cl)cc2/C1=C/c1cc(Cl)c(O)c(Cl)c1: 97
CC[n+]1c(/C=C/N(C)c2ccccc2)n(-c2ccccc2)c2ccc(-c3nc4ccccc4s3)cc21: 86
COc1cc2ncnc(Nc3cccc(Cl)c3)c2cc1OC: 103
CC(=O)c1ccc(N2CCOCC2)cc1O: 96.2

-- ask State its residual activity on CHUK (human) (UniProt O15111): COc1ccc2c(c[n+](C)c3c4cc5c(cc4ccc23)OCO5)c1OC
-- reply 97.5

-- ask Which residual activity is reported with CHUK (human) (UniProt O15111) for this entry: O=C1NC(=O)C(c2cn(CCCn3ccnc3)c3ccccc23)=C1Nc1ccccc1 ?
-- reply 105

-- ask Form field: residual activity recorded for Cc1ccc(Nc2nccc(N(C)c3ccc4c(C)n(C)nc4c3)n2)cc1S(N)(=O)=O with CHUK (human) (UniProt O15111) (enter value)
-- reply 99.4

-- ask Look up residual activity with CHUK (human) (UniProt O15111) for this compound: CCCC(=O)Oc1ccc2[nH]c(C(=O)c3cc4ccccc4[nH]3)cc2c1
-- reply 94.5

-- ask Please provide the recorded residual activity for CC(C)N(CCC(=O)c1ccc2ccccc2c1)Cc1ccccc1 , tested on CHUK (human) (UniProt O15111).
-- reply 96.4

-- ask Identify the measured residual activity of N#CC(C#N)=C(N)/C(C#N)=C/c1ccc(O)cc1 for CHUK (human) (UniProt O15111).
-- reply 94

-- ask Quick check: residual activity on CHUK (human) (UniProt O15111), item CCOC(=O)c1c(C)[nH]c(/C=C2\C(=O)Nc3ccccc32)c1C ?
-- reply 102

-- ask Short answer please: residual activity, CHUK (human) (UniProt O15111), entry Cc1ccc(S(=O)(=O)/C=C/C#N)cc1
-- reply 87.3

-- ask Param readout= residual activity; system= CHUK (human) (UniProt O15111); entry= CCN(CC)C(=O)c1ccc(Nc2nc(OCC3CCCCC3)c3nc[nH]c3n2)cc1 ; returns value.
-- reply 103

-- ask Return residual activity measured with CHUK (human) (UniProt O15111) given this compound: O=C1NC(=O)/C(=C/c2ccc3c(c2)OC(F)(F)O3)S1
-- reply 88.4

-- ask Report residual activity for N#C/C(=C(/N)Sc1ccc(N)cc1)c1ccccc1C(F)(F)F tested on CHUK (human) (UniProt O15111).
-- reply 102

-- ask Look up residual activity with CHUK (human) (UniProt O15111) for this compound: Oc1cccc(-c2nc(N3CCOCC3)c3oc4ncccc4c3n2)c1
-- reply 94.8

-- ask Reported residual activity for CHUK (human) (UniProt O15111), given CCC(=O)Nc1ccc2ncnc(Nc3cccc(Br)c3)c2c1 ?
-- reply 99.3

-- ask Give residual activity (CHUK (human) (UniProt O15111)) of the following compound: Nc1ncnc2[nH]nc(Nc3ccc(F)cc3)c12
-- reply 99.5

-- ask Any idea what residual activity came out for Nc1ccc2ncnc(NCCc3ccc(Oc4ccccc4)cc3)c2c1 on CHUK (human) (UniProt O15111)?
-- reply 101

-- ask Identify the measured residual activity of CNC(=O)c1cc(Oc2ccc(NC(=O)Nc3ccc(Cl)c(C(F)(F)F)c3)cc2)ccn1 for CHUK (human) (UniProt O15111).
-- reply 99.8

-- ask Provide value of residual activity for this record tested with CHUK (human) (UniProt O15111): Nc1cccc(-c2cc3c(Oc4cccc(O)c4)ncnc3[nH]2)c1
-- reply 102

###

# measurement_target: EPHA7 (human) (UniProt Q15375)
# Sequence (Q15375 whole entry, looked up): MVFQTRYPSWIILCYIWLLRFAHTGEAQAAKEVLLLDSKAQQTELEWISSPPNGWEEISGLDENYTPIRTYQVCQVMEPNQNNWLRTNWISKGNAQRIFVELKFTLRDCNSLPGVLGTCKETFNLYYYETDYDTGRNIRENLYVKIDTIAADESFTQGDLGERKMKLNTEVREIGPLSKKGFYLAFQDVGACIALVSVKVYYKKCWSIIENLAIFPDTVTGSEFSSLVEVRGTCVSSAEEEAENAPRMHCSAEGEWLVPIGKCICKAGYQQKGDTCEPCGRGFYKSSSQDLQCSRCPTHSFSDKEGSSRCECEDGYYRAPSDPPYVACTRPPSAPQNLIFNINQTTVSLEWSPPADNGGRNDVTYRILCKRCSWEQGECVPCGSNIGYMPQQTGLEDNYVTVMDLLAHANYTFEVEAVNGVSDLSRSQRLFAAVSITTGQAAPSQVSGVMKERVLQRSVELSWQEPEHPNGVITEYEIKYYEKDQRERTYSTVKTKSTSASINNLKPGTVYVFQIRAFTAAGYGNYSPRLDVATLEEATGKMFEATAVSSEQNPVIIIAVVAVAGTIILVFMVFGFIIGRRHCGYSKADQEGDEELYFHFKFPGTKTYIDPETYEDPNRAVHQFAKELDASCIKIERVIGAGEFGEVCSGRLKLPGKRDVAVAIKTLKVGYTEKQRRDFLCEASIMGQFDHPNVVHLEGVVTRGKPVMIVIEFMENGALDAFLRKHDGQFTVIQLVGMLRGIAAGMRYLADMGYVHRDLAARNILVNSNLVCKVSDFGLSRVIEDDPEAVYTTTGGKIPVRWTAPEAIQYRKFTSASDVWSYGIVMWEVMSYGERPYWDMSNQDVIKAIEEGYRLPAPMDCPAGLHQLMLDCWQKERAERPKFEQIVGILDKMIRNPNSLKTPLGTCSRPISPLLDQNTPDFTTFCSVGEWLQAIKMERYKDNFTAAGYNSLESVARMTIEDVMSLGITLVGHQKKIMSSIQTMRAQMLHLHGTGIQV
# test_name: radiometric filter-binding kinase assay, Kinase HotSpot
# run_parameters: compound 0.5 µM; ATP 10 µM
experimental_readout: residual activity (%)
Unit % implied. Number only.

# count of solved cases: 5
Cc1ccc(NC2=CC(=O)c3sc(C)nc3C2=O)cc1: 92.3
CO[C@H]1CC2CC[C@@H](C)[C@@](O)(O2)C(=O)C(=O)N2CCCC[C@H]2C(=O)OC([C@H](C)C[C@@H]2CC[C@@H](O)[C@H](OC)C2)CC(=O)[C@H](C)/C=C(\C)[C@@H](O)[C@@H](OC)C(=O)[C@H](C)C[C@H](C)/C=C/C=C/C=C/1C (stereo partly specified): 89.7
CC[n+]1c(/C=C/N(C)c2ccccc2)n(-c2ccccc2)c2ccc(-c3nc4ccccc4s3)cc21: 97.9
Nc1ccc2ncnc(NCCc3ccc(Oc4ccccc4)cc3)c2c1: 104
N#CC(C#N)=C(N)/C(C#N)=C/c1ccc(O)cc1: 90.5

-- ask Suppose we examine the compound Nc1ncnc2[nH]nc(Nc3ccc(F)cc3)c12 ; what residual activity value has been reported?
-- reply 101

-- ask May I ask what residual activity has been recorded for COc1ccc2c(c[n+](C)c3c4cc5c(cc4ccc23)OCO5)c1OC ?
-- reply 95.4

-- ask # input compound: O=S(=O)(c1cccc2cnccc12)N1CCCNCC1 ; wanted: its residual activity
-- reply 97.3

-- ask State the recorded residual activity for this entry: CCN(CC)CCNC(=O)c1c(C)[nH]c(/C=C2\C(=O)Nc3ccc(Cl)cc32)c1C
-- reply 67.1

-- ask Need residual activity of CCN(CC)C(=O)c1ccc(Nc2nc(OCC3CCCCC3)c3nc[nH]c3n2)cc1 , thanks.
-- reply 72.8

-- ask Would you kindly share the measured residual activity for Nc1ncnc2c1c(-c1ccc(Oc3ccccc3)cc1)cn2C1CCCC1 ?
-- reply 98.3

-- ask So what's the measured residual activity for this one? COc1ccc(COc2ccc(Cc3cnc(N)nc3N)cc2OC)cc1
-- reply 101

-- ask What value of residual activity has been recorded for this entry: CCC(=O)Nc1ccc2ncnc(Nc3cccc(Br)c3)c2c1
-- reply 102

###

# measurement_target: ULK2 (human) (UniProt Q8IYT8)
# Sequence (Q8IYT8 whole entry, looked up): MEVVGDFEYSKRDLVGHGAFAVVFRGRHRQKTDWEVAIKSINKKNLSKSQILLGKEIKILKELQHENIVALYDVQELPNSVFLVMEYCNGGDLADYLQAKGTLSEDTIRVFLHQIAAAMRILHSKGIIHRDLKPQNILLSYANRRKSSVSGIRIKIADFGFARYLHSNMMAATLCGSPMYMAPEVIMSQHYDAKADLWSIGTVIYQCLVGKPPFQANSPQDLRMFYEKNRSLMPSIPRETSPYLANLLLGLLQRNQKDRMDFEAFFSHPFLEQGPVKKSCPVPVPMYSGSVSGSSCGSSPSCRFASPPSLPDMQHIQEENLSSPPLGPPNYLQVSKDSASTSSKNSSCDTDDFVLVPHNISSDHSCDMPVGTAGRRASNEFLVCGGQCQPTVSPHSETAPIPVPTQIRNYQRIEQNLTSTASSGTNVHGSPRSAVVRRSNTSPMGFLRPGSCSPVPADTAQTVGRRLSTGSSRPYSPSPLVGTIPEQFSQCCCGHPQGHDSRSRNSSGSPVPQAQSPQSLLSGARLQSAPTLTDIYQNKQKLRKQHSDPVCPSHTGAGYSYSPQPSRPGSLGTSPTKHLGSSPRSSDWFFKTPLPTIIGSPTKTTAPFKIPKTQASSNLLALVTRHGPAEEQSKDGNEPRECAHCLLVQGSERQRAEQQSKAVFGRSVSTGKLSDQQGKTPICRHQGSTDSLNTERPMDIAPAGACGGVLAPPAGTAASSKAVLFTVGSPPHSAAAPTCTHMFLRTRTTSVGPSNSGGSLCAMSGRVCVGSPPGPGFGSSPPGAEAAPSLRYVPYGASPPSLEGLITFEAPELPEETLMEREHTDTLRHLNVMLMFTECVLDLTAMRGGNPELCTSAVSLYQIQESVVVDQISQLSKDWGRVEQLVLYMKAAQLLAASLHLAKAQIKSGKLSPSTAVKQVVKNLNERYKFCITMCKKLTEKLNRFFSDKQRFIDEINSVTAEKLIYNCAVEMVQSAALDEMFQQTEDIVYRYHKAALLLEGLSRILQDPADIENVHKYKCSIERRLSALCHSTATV
# test_name: radiometric filter-binding kinase assay, Kinase HotSpot
# run_parameters: compound 0.5 µM; ATP 10 µM
Reported values of residual activity for individual entries
Response body: numeric value in %, unit text excluded.

Recorded results for 2 compounds are shown here.
Cc1ccc(Nc2nccc(N(C)c3ccc4c(C)n(C)nc4c3)n2)cc1S(N)(=O)=O: 102
CCN(CC)CCNC(=O)c1c(C)[nH]c(/C=C2\C(=O)Nc3ccc(F)cc32)c1C: 40.3

-- ask residual activity lookup needed for O=c1cc(N2CCOCC2)oc2c1ccc1ccccc12 , thanks.
-- reply 94.9

-- ask Please look up its residual activity: COc1ccc2c(c[n+](C)c3c4cc5c(cc4ccc23)OCO5)c1OC
-- reply 92

-- ask Quick one: residual activity of O=C1NC(=O)c2c1c1c3ccccc3n3c1c1c2c2ccccc2n1C1CCC3O1 ?
-- reply 89.1

-- ask Entry CO[C@H]1CC2CC[C@@H](C)[C@@](O)(O2)C(=O)C(=O)N2CCCC[C@H]2C(=O)OC([C@H](C)C[C@@H]2CC[C@@H](O)[C@H](OC)C2)CC(=O)[C@H](C)/C=C(\C)[C@@H](O)[C@@H](OC)C(=O)[C@H](C)C[C@H](C)/C=C/C=C/C=C/1C (stereo partly specified) has what residual activity?
-- reply 120

-- ask Any idea what its residual activity is? The compound is CC(=O)c1ccc(N2CCOCC2)cc1O
-- reply 114

-- ask // returns reported residual activity for input Oc1cccc(-c2nc(N3CCOCC3)c3oc4ncccc4c3n2)c1
-- reply 106

-- ask Value lookup for residual activity; key = c1ccc(-c2n[nH]c3c2oc2ccccc23)cc1
-- reply 96.4

-- ask Field request: residual activity | item: CC[n+]1c(/C=C/N(C)c2ccccc2)n(-c2ccccc2)c2ccc(-c3nc4ccccc4s3)cc21
-- reply 109

-- ask If you can, please state the reported residual activity value of O=C1Nc2ccc(Cl)cc2/C1=C/c1cc(Cl)c(O)c(Cl)c1 .
-- reply 101

###

# measurement_target: NEK4 (human) (UniProt P51957)
# Sequence (P51957 whole entry, looked up): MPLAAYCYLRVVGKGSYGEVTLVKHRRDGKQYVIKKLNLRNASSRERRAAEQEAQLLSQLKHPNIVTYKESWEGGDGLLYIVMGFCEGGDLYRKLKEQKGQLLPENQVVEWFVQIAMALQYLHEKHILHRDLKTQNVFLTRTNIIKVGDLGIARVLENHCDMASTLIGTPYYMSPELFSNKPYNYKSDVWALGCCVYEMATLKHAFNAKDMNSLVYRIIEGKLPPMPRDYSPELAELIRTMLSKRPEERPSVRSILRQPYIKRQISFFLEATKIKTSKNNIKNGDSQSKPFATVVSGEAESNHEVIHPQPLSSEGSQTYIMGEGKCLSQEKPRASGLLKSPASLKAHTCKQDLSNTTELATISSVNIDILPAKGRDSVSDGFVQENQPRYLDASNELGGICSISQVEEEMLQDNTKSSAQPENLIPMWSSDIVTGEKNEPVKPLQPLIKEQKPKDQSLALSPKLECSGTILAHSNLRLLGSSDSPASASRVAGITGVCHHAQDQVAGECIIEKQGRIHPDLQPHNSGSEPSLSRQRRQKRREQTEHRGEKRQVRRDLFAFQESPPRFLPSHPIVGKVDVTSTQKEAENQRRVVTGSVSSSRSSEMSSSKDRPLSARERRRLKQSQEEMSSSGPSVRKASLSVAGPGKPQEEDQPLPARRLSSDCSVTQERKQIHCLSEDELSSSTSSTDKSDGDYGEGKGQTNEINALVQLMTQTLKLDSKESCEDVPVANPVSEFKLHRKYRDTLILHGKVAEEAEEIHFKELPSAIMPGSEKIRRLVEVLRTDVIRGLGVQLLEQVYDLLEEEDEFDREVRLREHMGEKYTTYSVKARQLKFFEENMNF
# test_name: radiometric filter-binding kinase assay, Kinase HotSpot
# run_parameters: compound 0.5 µM; ATP 10 µM
Each item that follows carries a reported residual activity.
Give the quantity in %, number only.

Cc1ccc(S(=O)(=O)/C=C/C#N)cc1: 94.3
Oc1cccc(-c2nc(N3CCOCC3)c3oc4ncccc4c3n2)c1: 90.4
CNc1cc2c(Nc3cccc(Br)c3)ncnc2cn1: 94.9

Now take the following compound into account.
-- ask Quick one: residual activity of CC(C)N(CCC(=O)c1ccc2ccccc2c1)Cc1ccccc1 ?
-- reply 95.7
